- TEST_SYSTEM: Ephrin type-B receptor 2 (Homo sapiens, UniProt P29323); also: in the data inactive means no Kd found up to 30 µM
- Sequence (P29323 whole entry): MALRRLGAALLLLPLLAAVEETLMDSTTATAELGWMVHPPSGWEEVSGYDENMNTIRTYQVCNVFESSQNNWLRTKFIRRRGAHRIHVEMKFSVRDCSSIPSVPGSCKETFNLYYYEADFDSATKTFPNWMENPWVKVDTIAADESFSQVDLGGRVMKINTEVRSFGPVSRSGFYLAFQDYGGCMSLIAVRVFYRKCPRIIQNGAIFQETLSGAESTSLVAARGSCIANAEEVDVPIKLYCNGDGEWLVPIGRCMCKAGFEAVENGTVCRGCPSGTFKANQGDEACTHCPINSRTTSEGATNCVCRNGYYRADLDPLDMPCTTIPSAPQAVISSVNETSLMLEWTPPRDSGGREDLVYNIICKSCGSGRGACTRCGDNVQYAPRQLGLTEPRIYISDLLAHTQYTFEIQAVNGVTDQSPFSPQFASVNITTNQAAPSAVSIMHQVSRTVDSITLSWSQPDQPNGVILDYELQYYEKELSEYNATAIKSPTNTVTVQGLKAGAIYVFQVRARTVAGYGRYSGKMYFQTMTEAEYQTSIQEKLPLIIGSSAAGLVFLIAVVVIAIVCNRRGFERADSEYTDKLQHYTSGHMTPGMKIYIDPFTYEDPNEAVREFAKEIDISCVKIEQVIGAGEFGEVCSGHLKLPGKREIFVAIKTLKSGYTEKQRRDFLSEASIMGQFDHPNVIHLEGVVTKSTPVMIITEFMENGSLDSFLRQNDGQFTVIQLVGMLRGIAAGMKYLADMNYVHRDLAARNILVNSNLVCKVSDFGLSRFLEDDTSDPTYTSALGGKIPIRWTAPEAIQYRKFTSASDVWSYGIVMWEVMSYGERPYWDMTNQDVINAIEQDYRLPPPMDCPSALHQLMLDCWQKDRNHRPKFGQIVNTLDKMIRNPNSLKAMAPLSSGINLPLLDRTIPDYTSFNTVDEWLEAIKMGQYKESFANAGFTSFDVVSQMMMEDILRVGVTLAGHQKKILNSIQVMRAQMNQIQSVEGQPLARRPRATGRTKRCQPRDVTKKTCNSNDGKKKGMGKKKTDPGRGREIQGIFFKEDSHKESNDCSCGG
Activity calls are given as the source filed them.
VALUE_KIND: Kd

# MOLECULE, READOUT_VALUE
rows = [
    ("O=c1sn(-c2cccc3ccccc23)c(=O)n1Cc1ccccc1", "> 30 µM (inactive)"),
    ("CC[C@@H]1C(=O)N(C)c2cnc(Nc3ccc(C(=O)N[C@H]4CC[C@H](N5CCN(CC6CC6)CC5)CC4)cc3OC)nc2N1C(C)C", "> 30 µM (inactive)"),
    ("Cn1cc(-c2ccc3nnc(C(F)(F)c4ccc5ncccc5c4)n3n2)cn1", "> 30 µM (inactive)"),
    ("COc1cc(OC)c(/C=C/S(=O)(=O)Cc2ccc(OC)c(NCC(=O)O)c2)c(OC)c1", "> 30 µM (inactive)"),
    ("CCn1c(=O)c(-c2cc[nH]n2)cc2c(C)nc(N)nc21", "> 30 µM (inactive)"),
    ("Cc1ccc(S(=O)(=O)Nc2nc3ccccc3nc2Nc2ccc3nsnc3c2)cc1", "> 30 µM (inactive)"),
    ("CCN1CCN(Cc2ccc(-c3cc4c(N[C@H](C)c5ccccc5)ncnc4[nH]3)cc2)CC1", "> 30 µM (inactive)"),
    ("O=C(Nc1ccc(-c2ccnc(Nc3ccc(N4CCOCC4)cc3)n2)cc1)C1CCCN1 (stereo not drawn)", "> 30 µM (inactive)"),
]
